Each recorded value in this set is attributed to patent US20140056903A1.

# assayedSystem: T1, monkey GFRα3 expressed with a C-terminal myc-myc-hexahistidine tag (monkey (Mf), UniProt O60609 32-374 (human entry), limits assumed)
# T1 construct: also called MfGFRα3-mmh; MfGFRα3-mmH
# T1 chain: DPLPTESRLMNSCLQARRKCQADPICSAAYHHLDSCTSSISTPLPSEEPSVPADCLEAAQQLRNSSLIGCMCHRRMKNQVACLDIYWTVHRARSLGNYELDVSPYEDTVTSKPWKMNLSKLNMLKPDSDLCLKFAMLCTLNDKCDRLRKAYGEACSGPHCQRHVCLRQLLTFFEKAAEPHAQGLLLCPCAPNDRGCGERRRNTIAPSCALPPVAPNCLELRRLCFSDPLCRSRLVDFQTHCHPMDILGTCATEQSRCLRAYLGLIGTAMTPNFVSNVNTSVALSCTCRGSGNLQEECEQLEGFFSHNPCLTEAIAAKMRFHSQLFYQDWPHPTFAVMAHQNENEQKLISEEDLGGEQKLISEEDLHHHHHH
# methodSummary: SPR, Ab captured, 25C
assayReadout: koff (s⁻¹)
Field format: number, assumed s⁻¹, no unit text.

input: Given H4H2293P (antibody, human IgG4, V domains shown, human IgG4 Fc (H4H)) VH: QVQLVESGGGVVQPGRSLRLSCAASGFSFSDYVMHWVRQAPGKGLEWVASIWFDGSNELYADSVKGRFTISRDNSKNTLFLQMNSLRAEDTAVYYCAKKGVLVATSAFHIWGQGTMVTVSS VL: AIQMTQSPSSLSASVGDRVTITCRASQNINNYLNWYHQKPGKAPNLLIYAASSLQSGVPSRFSGSGSGTDYTLTISSLQPEDFGNYYCQQSYSTSMYTFGQGTKLEIK , state its recorded koff.
output: 4.17e-05
